assay_target: ε2/.zeta.1 heteromeric NMDA receptor channel (Mus musculus, UniProt P35438+Q01097)
Sequence (Q01097 27-1482, other chains not shown): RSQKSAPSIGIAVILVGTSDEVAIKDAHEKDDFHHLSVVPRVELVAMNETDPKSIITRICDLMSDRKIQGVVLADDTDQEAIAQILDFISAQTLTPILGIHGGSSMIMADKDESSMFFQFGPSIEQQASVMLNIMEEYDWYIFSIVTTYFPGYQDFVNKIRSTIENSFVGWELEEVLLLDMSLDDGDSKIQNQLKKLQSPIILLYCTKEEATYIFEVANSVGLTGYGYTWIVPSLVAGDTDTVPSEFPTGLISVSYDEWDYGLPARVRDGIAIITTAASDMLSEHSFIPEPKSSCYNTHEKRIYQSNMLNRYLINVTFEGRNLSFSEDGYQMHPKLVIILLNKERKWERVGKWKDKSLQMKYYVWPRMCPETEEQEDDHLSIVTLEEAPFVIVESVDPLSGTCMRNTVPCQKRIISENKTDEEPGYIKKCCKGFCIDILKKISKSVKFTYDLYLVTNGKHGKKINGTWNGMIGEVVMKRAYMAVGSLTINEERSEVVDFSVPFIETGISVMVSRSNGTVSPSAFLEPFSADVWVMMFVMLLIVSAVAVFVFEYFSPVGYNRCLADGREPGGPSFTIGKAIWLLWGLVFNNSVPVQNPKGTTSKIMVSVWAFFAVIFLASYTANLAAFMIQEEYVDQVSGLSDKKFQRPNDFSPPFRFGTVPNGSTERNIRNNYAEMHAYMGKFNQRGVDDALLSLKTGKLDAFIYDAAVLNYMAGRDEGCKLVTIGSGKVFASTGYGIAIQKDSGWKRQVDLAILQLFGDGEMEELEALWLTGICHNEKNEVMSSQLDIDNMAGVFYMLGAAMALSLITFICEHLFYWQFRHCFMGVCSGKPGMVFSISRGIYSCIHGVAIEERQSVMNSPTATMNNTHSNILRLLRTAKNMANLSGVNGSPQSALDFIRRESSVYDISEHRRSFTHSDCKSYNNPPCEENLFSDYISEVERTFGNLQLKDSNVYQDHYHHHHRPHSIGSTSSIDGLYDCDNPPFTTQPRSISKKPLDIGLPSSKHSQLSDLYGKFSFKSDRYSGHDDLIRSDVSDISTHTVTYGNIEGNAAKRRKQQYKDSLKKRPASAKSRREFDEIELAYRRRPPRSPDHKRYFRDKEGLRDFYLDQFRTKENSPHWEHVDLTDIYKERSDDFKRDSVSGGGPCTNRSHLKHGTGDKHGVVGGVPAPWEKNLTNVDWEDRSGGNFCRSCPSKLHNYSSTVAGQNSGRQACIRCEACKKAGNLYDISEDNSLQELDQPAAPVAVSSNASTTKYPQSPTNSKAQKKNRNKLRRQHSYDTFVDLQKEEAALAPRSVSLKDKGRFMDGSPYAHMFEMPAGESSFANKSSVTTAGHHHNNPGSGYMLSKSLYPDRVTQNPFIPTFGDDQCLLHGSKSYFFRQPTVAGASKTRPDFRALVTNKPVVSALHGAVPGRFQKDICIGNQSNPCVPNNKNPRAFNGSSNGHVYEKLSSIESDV
assay_text: Electrophysiological test in Xenopus oocytes expressing ε2 and .zeta.1 subunits
stated_conditions: Ba^2+ Ringer's solution; dose-reaction curve
measurement_kind: EC50 (nM)
The response must be a number in nM with no trailing unit.

[ask] Given the molecule NCC(=O)O [glycine] , what is its reported EC50?
[reply] 300

====

assay_target: ε1/.zeta.1 heteromeric NMDA receptor channel (Mus musculus, UniProt P35436+P35438)
Construct: expressed in transfected cells; host or cells: Xenopus oocytes injected with in vitro transcribed mRNAs
Sequence (P35436 23-1464 S384R, other chains not shown): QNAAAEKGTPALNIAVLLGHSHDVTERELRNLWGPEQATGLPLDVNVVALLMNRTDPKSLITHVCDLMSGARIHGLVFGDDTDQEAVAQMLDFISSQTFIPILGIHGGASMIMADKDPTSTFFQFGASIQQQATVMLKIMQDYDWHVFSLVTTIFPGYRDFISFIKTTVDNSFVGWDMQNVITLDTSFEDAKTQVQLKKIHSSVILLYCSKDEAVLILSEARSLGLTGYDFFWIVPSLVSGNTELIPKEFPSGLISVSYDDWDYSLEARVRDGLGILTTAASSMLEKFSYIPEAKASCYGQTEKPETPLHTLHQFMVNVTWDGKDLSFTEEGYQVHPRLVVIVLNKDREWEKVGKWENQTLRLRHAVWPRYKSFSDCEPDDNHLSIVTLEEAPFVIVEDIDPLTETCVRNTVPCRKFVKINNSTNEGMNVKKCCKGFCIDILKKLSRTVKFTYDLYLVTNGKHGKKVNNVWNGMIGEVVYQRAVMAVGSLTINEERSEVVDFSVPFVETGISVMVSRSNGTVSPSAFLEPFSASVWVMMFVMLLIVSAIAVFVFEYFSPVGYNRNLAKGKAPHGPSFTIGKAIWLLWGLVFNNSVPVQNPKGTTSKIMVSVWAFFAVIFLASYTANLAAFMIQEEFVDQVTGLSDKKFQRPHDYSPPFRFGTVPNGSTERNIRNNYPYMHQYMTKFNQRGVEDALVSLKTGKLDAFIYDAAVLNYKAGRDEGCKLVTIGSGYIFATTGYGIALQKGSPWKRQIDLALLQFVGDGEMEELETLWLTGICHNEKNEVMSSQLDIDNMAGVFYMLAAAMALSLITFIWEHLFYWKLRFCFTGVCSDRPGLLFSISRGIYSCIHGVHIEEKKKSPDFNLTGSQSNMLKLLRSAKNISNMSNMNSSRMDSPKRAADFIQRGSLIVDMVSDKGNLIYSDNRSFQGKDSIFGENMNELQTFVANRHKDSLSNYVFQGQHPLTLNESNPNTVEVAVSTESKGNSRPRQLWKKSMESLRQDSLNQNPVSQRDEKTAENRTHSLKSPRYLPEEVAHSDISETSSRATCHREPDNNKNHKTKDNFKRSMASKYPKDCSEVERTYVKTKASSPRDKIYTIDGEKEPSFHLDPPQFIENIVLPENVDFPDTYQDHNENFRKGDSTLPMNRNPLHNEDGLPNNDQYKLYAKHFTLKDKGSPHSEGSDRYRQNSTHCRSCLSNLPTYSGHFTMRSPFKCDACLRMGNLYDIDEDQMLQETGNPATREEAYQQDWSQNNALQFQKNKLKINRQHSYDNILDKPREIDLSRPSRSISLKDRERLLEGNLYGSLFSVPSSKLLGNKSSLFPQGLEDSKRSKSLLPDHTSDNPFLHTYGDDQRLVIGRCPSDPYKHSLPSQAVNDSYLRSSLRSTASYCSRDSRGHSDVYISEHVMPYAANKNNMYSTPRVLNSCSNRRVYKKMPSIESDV
assay_text: Electrophysiological test (micropipet voltage clamp) in Xenopus oocytes expressing ε1 and .zeta.1 subunits
Type: cell-based
stated_conditions: Ba^2+ Ringer's solution; dose-reaction curve; read-out: EC50
measurement_kind: EC50 (nM)
Number only, in nM; omit the unit.

[ask] EC50 lookup needed for NCC(=O)O [glycine] , thanks.
[reply] 2100
